Just for reference, ChEMBL document CHEMBL1124246 is where these values come from.

- testedSystem: Choline O-acetyltransferase (Rattus norvegicus)
- Sequence (P32738 whole entry): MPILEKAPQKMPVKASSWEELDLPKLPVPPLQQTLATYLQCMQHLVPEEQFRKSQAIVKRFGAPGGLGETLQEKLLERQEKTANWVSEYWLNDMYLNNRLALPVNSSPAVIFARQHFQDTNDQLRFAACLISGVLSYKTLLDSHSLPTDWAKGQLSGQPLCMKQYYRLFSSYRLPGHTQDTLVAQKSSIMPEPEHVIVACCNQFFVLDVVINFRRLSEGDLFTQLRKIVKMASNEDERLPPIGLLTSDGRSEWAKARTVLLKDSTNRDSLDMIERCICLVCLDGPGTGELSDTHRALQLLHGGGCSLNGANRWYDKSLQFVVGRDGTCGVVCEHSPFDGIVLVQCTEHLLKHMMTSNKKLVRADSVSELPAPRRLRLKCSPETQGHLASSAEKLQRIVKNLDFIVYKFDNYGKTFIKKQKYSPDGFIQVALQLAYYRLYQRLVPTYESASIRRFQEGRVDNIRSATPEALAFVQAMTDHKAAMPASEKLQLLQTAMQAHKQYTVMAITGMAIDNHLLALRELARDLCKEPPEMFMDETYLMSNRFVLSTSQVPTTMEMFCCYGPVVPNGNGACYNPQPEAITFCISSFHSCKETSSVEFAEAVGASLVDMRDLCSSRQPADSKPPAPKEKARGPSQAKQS
- protocolDescription: Inhibition of choline acetyltransferase (ChAT) activity
- testParameters: read-out: I50
pIC50: −log10 of the molar value.
Assign class by pIC50: not lower than 5 means Condition met; lower than 5 means Condition not met.

Check out these entries, answers already filled in.
OCCC[n+]1ccc(/C=C/c2cccc3ccccc23)cc1 Condition met
NC(=O)NC(=O)C[n+]1ccc(/C=C/c2cccc3ccccc23)cc1 Condition met
O=C(O)CC[n+]1ccc(/C=C/c2cccc3ccccc23)cc1 Condition not met
NCCC[n+]1ccc(/C=C/c2cccc3ccccc23)cc1 Condition met
Cc1c[n+](CC(N)=O)ccc1/C=C/c1cccc2ccccc12 Condition met

Now for another entry.
Ask: API: above_or_equal(metric=pIC50, cutoff=5) for item Cc1c[n+](CCN)ccc1/C=C/c1cccc2ccccc12
Result: Condition met
